tested on: Sonic hedgehog protein (Shh); test: small-molecule binders of Shh protein, primary screen, biochemical, small-molecule microarray, 635/667 nm fluorescence (AID 1151); conditions: small-molecule microarray binding, 635 nm fluorescence; higher = more signal;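 note: Shh protein binding to compounds spotted on small-molecule microarray slides; score combines spot fluorescence intensity with signal-to-noise across triplicate slides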
Documented composite z-score across a set of compounds
Readout Kind: composite z-score

Structure Smiles String | Readout Kind | Observed Value
C[C@@H](ON=C1[C@H]2CCn3c(=O)n(-c4ccccc4)c(=O)n3[C@H]2[C@H](O)[C@@H]2O[C@H]12)c1cn([C@H](CO)Cc2ccccc2)nn1 | composite z-score | 0.403
CO[C@@H]1COC(=O)CC=C[C@H](C)COC(=O)[C@H](C)NC(=O)CC=C[C@H]1C | composite z-score | 1.19
CCOC(=O)NN=C1C[C@@H](O)[C@@H](O)[C@@H]2[C@@H]3C(=O)N(Cc4ccc5c(c4)OCO5)C(=O)[C@@H]3CC[C@@H]12 | composite z-score | 0.191
CCCNC(=O)OC[C@H]1O[C@H](CCON=C(C)CCN2CCc3nc(-c4ccccc4)c(-c4ccccc4)cc3C2)C=C[C@@H]1Oc1ccc(OC)cc1 | composite z-score | 0.449

---

assay: binders of probe aFST on microarray, primary screen, stem cell growth factor project, biochemical, small-molecule microarray, fluorescence 635/667 (AID 1086); details: higher = more signal;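 note: score merges 667 nm fluorescence with signal-to-noise of each printed compound spot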
Readout Kind: composite z-score

Structure Smiles String | Readout Kind | Observed Value
C[C@@H]1CC[C@@H](C(=O)O)N[C@H]1c1ccc(-c2ccco2)cc1 | composite z-score | 0.583
CC(C)C(=O)N[C@@H]1CCCN1C(=O)C=Cc1ccccc1 | composite z-score | 0.125
CO[C@H]1COC(=O)[C@H](C)NC(=O)CC=C[C@@H](C)[C@H](OC)COC(=O)CC=C[C@@H]1C | composite z-score | -0.0994

---

experiment: binders of probe aHhip on microarray, primary screen, stem cell growth factor project, biochemical, small-molecule microarray, fluorescence 635/667 (AID 1087); conditions: higher = more signal;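 note: score merges spot fluorescence at 667nm with spot signal to noise ratio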
Readout Kind: composite z-score

Molecule | Observed Value
CCOC(=O)CCN1C(=O)[C@H]2[C@H]3[C@H](O)[C@H](O)CC(=NNC(=O)OCC)[C@@H]3CC[C@H]2C1=O | -0.0994
CCOC(=O)NN=C1C[C@@H](O)[C@@H](O)[C@@H]2[C@@H]3C(=O)N(Cc4ccccc4)C(=O)[C@@H]3CC[C@@H]12 | -0.0391
CO[C@H]1COC(=O)CC=C[C@@H](C)COC(=O)[C@@H](OCc2ccccc2)C=C[C@@H]1C | -0.0994
CCCNC(=O)OC[C@H]1O[C@H](CCON=C(C)CCN2CCc3nc(-c4ccccc4)c(-c4ccccc4)cc3C2)C=C[C@@H]1Oc1ccc(OC)cc1 | -0.0994
CCOC(=O)[C@H](Cc1ccccc1)NC(=O)CCC1CC(OC(=O)NCc2cccc3ccccc23)CC2(CCCC(COC(=O)NCCCN3CCCC3=O)O2)O1 (stereo not given in full) | -0.0994

---

biological target: Torsin-1A-interacting protein 2 (Homo sapiens); assay: LULL1 binders on small-molecule microarray, primary screen, cell lysate, human LULL1 lysate, 635/667 nm fluorescence (AID 1092); conditions: hLULL1 lysate binding, 635 nm fluorescence, higher = more signal;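 note: probe is lysate of COS7 cells overexpressing human LULL1; score merges per-feature 667 nm fluorescence with signal-to-noise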
Documented composite z-score across a set of compounds
Readout Kind: composite z-score

Compound | Target Under Test | Readout Kind | Observed Value
CCCNC(=O)OC[C@H]1O[C@H](CCON=C(C)CCC(=O)OC[C@H]2O[C@H](C#Cc3ccccc3)C=C[C@@H]2Oc2ccc(C)cc2)C=C[C@@H]1Oc1ccc(OC)cc1 | Torsin-1A-interacting protein 2 (Homo sapiens) | composite z-score | -0.575
CC(C)=NOC[C@@H](O)COCc1ccco1 | Torsin-1A-interacting protein 2 (Homo sapiens) | composite z-score | -0.151
COC(=O)[C@H](C)NC(=O)CCC1CC(OC(=O)NCCc2ccc(F)cc2)CC2(CCCC(COC(=O)NCCCN3CCCC3=O)O2)O1 (stereo not given in full) | Torsin-1A-interacting protein 2 (Homo sapiens) | composite z-score | 1.64
Cc1cc2c(nc1C)CCCN2CC(C)ON=C[C@@H](C)[C@H](OCc1ccccc1)C(C)C (stereo not given in full) | Torsin-1A-interacting protein 2 (Homo sapiens) | composite z-score | -0.817
C[C@@H](c1ccccc1)N1C(=O)[C@H]2[C@H]3[C@H](O)[C@H](O)CC(=O)[C@@H]3CC[C@H]2C1=O | Torsin-1A-interacting protein 2 (Homo sapiens) | composite z-score | 0.775
